Consider the following compounds; for each one, report its inhibition.
target: Serine/threonine-protein kinase D1 (Homo sapiens) (UniProt Q15139); conditions: at 0.1 µM;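 note: values given as mean inhibition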
Sequence (Q15139 whole entry): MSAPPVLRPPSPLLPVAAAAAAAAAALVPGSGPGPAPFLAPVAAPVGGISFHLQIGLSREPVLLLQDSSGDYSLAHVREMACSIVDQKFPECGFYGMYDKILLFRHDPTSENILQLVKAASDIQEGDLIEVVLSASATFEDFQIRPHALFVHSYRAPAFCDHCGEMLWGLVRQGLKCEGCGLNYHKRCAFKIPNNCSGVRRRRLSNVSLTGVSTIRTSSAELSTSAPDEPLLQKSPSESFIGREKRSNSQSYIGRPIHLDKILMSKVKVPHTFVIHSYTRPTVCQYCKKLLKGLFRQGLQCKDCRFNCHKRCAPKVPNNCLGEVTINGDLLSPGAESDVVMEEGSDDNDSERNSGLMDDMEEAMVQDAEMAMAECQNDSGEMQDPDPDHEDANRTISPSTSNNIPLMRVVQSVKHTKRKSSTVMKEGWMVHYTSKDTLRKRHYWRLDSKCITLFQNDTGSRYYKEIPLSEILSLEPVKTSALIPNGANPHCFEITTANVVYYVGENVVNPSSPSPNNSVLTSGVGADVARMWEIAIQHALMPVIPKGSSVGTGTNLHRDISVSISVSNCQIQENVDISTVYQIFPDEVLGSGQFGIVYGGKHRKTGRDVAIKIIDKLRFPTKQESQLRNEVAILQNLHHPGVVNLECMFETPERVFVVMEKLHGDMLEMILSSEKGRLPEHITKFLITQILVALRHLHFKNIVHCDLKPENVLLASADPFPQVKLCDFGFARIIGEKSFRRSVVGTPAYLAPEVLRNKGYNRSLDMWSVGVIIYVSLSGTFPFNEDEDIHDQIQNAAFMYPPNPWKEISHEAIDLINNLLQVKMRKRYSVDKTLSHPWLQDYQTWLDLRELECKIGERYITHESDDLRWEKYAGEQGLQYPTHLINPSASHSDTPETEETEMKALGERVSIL
Numbers only, in %.

// known answers, use as guide
COc1cc(N2CCN(C(C)C)CC2)ccc1Nc1nc(Nc2ccc(F)cc2C(=O)NC[C@@H](O)CO)c2cc[nH]c2n1: 1.65
O=C(NCC1CC1)c1ccc(-c2cccc(C(=O)NC3CC3)c2)cc1: 1.97
Fc1ccc(-c2nc3n(c2-c2ccncc2)CCS3)cc1: 0.84
Fc1ccc(-c2ncn(C3CCNCC3)c2-c2ccnc(Oc3ccc(Oc4ccccc4)cc3)n2)cc1: 5.08

Take each entry in turn and give its inhibition.
1. Cc1ccc(C(=O)NC(C)C)cc1-c1ccc(C(=O)NCC2CC2)cc1
2. COc1ccc2cc(-c3c(-c4ccncc4)nc(-c4ccc([S+](C)[O-])cc4C)n3C)ccc2c1 (stereo unspecified)
3. COc1ccc2ncn(-c3cc(O[C@H](C)c4ccccc4Cl)c(C(N)=O)s3)c2c1
4. COC(=O)Nc1nc2ccc(Sc3ccc(NC(=O)Nc4cc(C(F)(F)F)ccc4F)cc3)cc2[nH]1
5. CCc1cccc(CC)c1/C=C/c1cncc(C(=O)NC)c1
6. Cc1ccc(C(=O)NC2CCC2)cc1-c1ccc(C(=O)NCC2CC2)cc1
7. NS(=O)(=O)c1ccc(N/N=C2\C(=O)Nc3ccc(-c4cnco4)cc32)cc1
8. NC(=O)Cc1ccccc1Oc1nccc(-c2c(-c3ccc(F)cc3)ncn2C2CCNCC2)n1

Result:
[-3.39, -0.67, -0.01, 0.94, 2.52, 2.65, -1.79, 4.86]

Quick request: inhibition for each listed item, please.
1. COc1cc(Nc2ncc3c(C)nc(-c4cccc(Oc5ccccc5)c4)n3n2)cc(OC)c1OC
2. Clc1ccc(CNc2nccc(-c3cnn4ncccc34)n2)cc1

Result:
1. 1.42
2. 1.24

Batch lookup, inhibition per entry.
1. CCc1ccc(Oc2nccc(-c3c(-c4ccc(F)cc4)ncn3C3CCNCC3)n2)cc1
2. Nc1nccc(-c2c(-c3ccc(F)cc3)ncn2C2CCC(O)CC2)n1 (stereo unspecified)
3. Cc1nnc(-c2ccc(C)c(-c3ccc(C(=O)NCc4ccc(Cl)cc4)cc3)c2)o1
4. CNC(=O)c1cncc(/C=C/c2c(C)cccc2C)c1
5. CS(=O)(=O)CCNCc1cc(-c2cc3c(Nc4ccc(OCc5cccc(F)c5)c(Cl)c4)ncnc3s2)cs1
6. O=C(Nc1n[nH]c2cc(-c3cc(F)ccc3F)ccc12)C1CC1
7. O=C(Nc1n[nH]c2nc(-c3ccco3)ccc12)C1CC1
8. C#Cc1cccc(Nc2ncnc3ccc(OCCCCNCCS(C)(=O)=O)cc23)c1

Result:
1. 3.88
2. 0.14
3. 1
4. -2.84
5. 4.69
6. 2.95
7. 0.7
8. 2.59

Dear reader, for each entry below, please note its inhibition.
1. C[C@@H](Oc1cc(-n2cnc3ccc(OCC4CCN(C)CC4)cc32)sc1C(N)=O)c1ccccc1Cl
2. CCS(=O)(=O)c1ccc(OC)c(Nc2ncc(-c3cccc(-c4ccccc4F)c3)o2)c1
3. CCS(=O)(=O)c1ccc(OC)c(Nc2ncc(-c3ccccc3Cl)o2)c1

Result:
[6.16, 1.19, 1.52]

Value sought for every listed compound: inhibition.
1. Fc1ccc(-c2c(-c3ccncc3)nc3n2CCS3)cc1
2. NS(=O)(=O)c1ccc(Nc2cc(-c3ccc(O)c(F)c3)n[nH]2)cc1

Result:
1: -0.81; 2: -1.96

Quick batch: inhibition for everything below.
1. COc1cccc(-n2cnc3c(N/N=C/c4ccncc4)ncnc32)c1
2. O=C1Nc2ccc(I)cc2C1=Cc1cc(Br)c(O)c(Br)c1
3. Fc1ccc(-c2ncn(C3CCNCC3)c2-c2ccnc(Oc3ccc4c(c3)OCO4)n2)cc1
4. O=C1NC(=O)C(c2cccc(Cl)c2)=C1Nc1ccc(Cl)c(C(=O)O)c1

Result:
1: -2.1; 2: 3.52; 3: 4.85; 4: 2.5

Quick batch: inhibition for everything below.
1. CN1CCN(CCCNc2nc3ccc(Oc4ccc(NC(=O)Nc5cc(C(F)(F)F)ccc5F)cc4)cc3[nH]2)CC1
2. NS(=O)(=O)c1ccc(N/N=C2\C(=O)Nc3ccc(C(=O)NCCCn4ccnc4)cc32)cc1
3. O=C1Nc2ccccc2/C1=C/Nc1ccc(-n2cncn2)cc1
4. CCN(CC)Cc1ccc(Nc2nccc(-c3cnn4ncccc34)n2)cc1
5. Fc1ccc(-c2ncn(CCCN3CCOCC3)c2-c2ccncc2)cc1
6. NC(=O)c1ccc(Oc2nccc(-c3c(-c4ccc(F)cc4)ncn3C3CCNCC3)n2)cc1
7. FC(F)(F)c1cccc(Nc2nccc(-c3cnn4nc(-c5ccccc5)ccc34)n2)c1

Result:
1: -0.88; 2: 5.9; 3: 5.12; 4: 36.3; 5: 1.04; 6: 4.57; 7: 2.1

Give me inhibition for each of these compounds, listed below.
1. CN(C)CCCNc1nccc(-c2c(-c3ccc(F)cc3)nn3cc(C(F)(F)F)ccc23)n1
2. CCC(=O)Nc1ccc(C)c(-c2ccc(C(=O)NCC3CC3)cc2)c1
3. COc1ccc(C2=C(N3CCc4ccccc43)C(=O)NC2=O)cc1

Result:
[-1.67, 2.88, 4.69]

----------
target: Serine/threonine-protein kinase PAK 3 (Homo sapiens); conditions: at 0.1 µM;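 note: mean percent inhibition of PAK3, measured in a screen of the GSK published kinase inhibitor set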
assay.metric: inhibition (%)
Numbers only, in %.

Fc1ccc(-c2c(-c3ccncc3)nc3n2CCS3)cc1: 2.55

Report inhibition for every entry below.
1. C[C@@H](Oc1cc(-n2cnc3ccc(OCC4CCN(C)CC4)cc32)sc1C(N)=O)c1ccccc1Cl
2. NC(=O)c1ccc(Oc2nccc(-c3c(-c4ccc(F)cc4)ncn3C3CCNCC3)n2)cc1
3. CCc1nccc2c1nc(-c1nonc1N)n2CC
4. Cc1ccc(C(=O)NC(C)C)cc1-c1ccc(C(=O)NCC2CC2)cc1
5. O=C(Nc1n[nH]c2nc(-c3ccco3)ccc12)C1CC1

Result:
6.02
6.67
0.51
-3.81
0.51

----------
molecular target: Serine/threonine-protein kinase BRSK1 (Homo sapiens) (UniProt Q8TDC3); settings: at 0.1 µM
Sequence (Q8TDC3 whole entry): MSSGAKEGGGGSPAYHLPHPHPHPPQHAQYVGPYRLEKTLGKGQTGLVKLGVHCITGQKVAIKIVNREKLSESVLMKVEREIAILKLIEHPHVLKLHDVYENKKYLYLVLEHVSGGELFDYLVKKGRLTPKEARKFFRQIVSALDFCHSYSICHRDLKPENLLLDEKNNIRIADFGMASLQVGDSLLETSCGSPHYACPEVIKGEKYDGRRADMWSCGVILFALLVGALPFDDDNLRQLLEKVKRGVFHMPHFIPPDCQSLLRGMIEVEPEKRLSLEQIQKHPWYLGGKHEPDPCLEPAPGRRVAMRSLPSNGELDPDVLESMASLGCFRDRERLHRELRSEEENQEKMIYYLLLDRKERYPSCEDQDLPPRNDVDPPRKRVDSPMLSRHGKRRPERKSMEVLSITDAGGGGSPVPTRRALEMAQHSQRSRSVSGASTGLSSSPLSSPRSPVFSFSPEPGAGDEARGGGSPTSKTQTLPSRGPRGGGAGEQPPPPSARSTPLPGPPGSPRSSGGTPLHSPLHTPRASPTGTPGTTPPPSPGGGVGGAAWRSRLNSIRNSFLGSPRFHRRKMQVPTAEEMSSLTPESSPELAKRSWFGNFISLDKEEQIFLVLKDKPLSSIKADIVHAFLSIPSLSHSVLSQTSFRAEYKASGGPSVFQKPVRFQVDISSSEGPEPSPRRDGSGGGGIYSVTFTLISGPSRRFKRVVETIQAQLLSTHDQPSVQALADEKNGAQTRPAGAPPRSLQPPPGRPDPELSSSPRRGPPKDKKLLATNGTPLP
Description: GSK_PKIS: BRSK1 mean inhibition at 0.1 uM [Nanosyn]
assay.metric: inhibition (%)
One number for each entry, in %.

Batch: inhibition for all items listed.
1. NS(=O)(=O)c1ccc(N/N=C2\C(=O)Nc3ccc(C(=O)NCCCn4ccnc4)cc32)cc1
2. COc1cc2ncn(-c3cc(OCCc4ccccc4)c(C(N)=O)s3)c2cc1OC

Result:
1: 4.96; 2: 41.5

Go through the list and state inhibition for each entry.
1. CCc1ccc(Oc2nccc(-c3c(-c4ccc(F)cc4)ncn3C3CCNCC3)n2)cc1
2. Fc1ccc(-c2nc3n(c2-c2ccncc2)CCS3)cc1

Result:
[1.81, 0.25]

Each compound below has a reported value. Please supply its inhibition.
1. COc1cc(Nc2ncc3c(C)nc(-c4cccc(Oc5ccccc5)c4)n3n2)cc(OC)c1OC
2. O=C(Nc1n[nH]c2cc(-c3ccccc3)ccc12)C1CC1
3. O=C(Nc1n[nH]c2cc(-c3cc(F)ccc3F)ccc12)C1CC1
4. COc1cccc(/C=N/Nc2ncnc3c2cnn3-c2cccc(OC)c2)c1

Result:
1.68
4.46
2.17
0.47

# per-item lookup of inhibition; items listed below
1. CS(=O)(=O)CCNCc1cc(-c2cc3c(Nc4ccc(OCc5cccc(F)c5)c(Cl)c4)ncnc3s2)cs1
2. COc1cc2ncn(-c3cc(OCc4cccs4)c(C(N)=O)s3)c2cc1OC

Result:
1. 1.37
2. 9

----------
molecular target: cAMP-dependent protein kinase catalytic subunit alpha (Homo sapiens); settings: at 1 µM;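 note: mean percent inhibition of PKA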
assay.metric: inhibition (%)
Numbers only, in %.

Below, 6 compounds whose answers are already recorded.
NS(=O)(=O)c1ccc(N/N=C2\C(=O)Nc3ccc(C(=O)NCCCn4ccnc4)cc32)cc1: 2.8
Cc1ccc(C(=O)NC(C)C)cc1-c1ccc(C(=O)NCC2CC2)cc1: -1.32
CN(c1ccc(NC(=O)Nc2c(Cl)cccc2Cl)cc1)c1ccnc(Nc2cccc(CS(C)(=O)=O)c2)n1: 3.01
O=C(Nc1n[nH]c2nc(-c3ccc(O)cc3)c(Br)cc12)C1CC1: 5.49
CCc1cccc(CC)c1/C=C/c1cncc(C(=O)NC)c1: 1.06
CCS(=O)(=O)c1ccc(OC)c(Nc2ncc(-c3cccc(-c4ccccc4F)c3)o2)c1: 1.3

Here is the next item to consider.
Q: Find inhibition (cAMP-dependent protein kinase catalytic subunit alpha (Homo sapiens)) for the entry NS(=O)(=O)c1ccc(N/N=C2\C(=O)Nc3ccc(-c4cnco4)cc32)cc1
Result: -2.27

----------
target: Receptor tyrosine-protein kinase erbB-4 (Homo sapiens); details: at 1 µM;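 note: each value is a mean percent inhibition of ERBB4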
I'd be grateful if you could share measured inhibition for these entries.
Give bare numbers, in %.

// below: answered compounds
O=C(NCC1CC1)c1ccc(-c2cccc(C(=O)NC3CC3)c2)cc1: 6.05
COc1cccc(/C=N/Nc2ncnc3c2cnn3-c2cccc(OC)c2)c1: 10
CN(c1ccc(NC(=O)Nc2c(Cl)cccc2Cl)cc1)c1ccnc(Nc2cccc(CS(C)(=O)=O)c2)n1: 17.1
CNC(=O)c1cncc(/C=C/c2c(C)cccc2C)c1: 2.45
NC(=O)c1ccc(Oc2nccc(-c3c(-c4ccc(F)cc4)ncn3C3CCNCC3)n2)cc1: 8.73
Fc1ccc(-c2ncn(C3CCNCC3)c2-c2ccnc(Oc3ccc4c(c3)OCO4)n2)cc1: 19.3
COc1ccc2cc(-c3c(-c4ccncc4)nc(-c4ccc(S(C)(=O)=O)cc4C)n3C)ccc2c1: 44.4
COc1cc2ncn(-c3cc(OCc4ccccc4C(F)(F)F)c(C(C)=O)s3)c2cc1OC: 9.68

We now examine a further compound.
Q: What value of measured inhibition is listed for NC(=O)Cc1ccccc1Oc1nccc(-c2c(-c3ccc(F)cc3)ncn2C2CCNCC2)n1 ?
Result: 17.1
